# Experimental target: calf thymus/mouse ribonucleotide reductase (mammalian RR) (Bos taurus)
# Sequence (Q32LP1 1-791): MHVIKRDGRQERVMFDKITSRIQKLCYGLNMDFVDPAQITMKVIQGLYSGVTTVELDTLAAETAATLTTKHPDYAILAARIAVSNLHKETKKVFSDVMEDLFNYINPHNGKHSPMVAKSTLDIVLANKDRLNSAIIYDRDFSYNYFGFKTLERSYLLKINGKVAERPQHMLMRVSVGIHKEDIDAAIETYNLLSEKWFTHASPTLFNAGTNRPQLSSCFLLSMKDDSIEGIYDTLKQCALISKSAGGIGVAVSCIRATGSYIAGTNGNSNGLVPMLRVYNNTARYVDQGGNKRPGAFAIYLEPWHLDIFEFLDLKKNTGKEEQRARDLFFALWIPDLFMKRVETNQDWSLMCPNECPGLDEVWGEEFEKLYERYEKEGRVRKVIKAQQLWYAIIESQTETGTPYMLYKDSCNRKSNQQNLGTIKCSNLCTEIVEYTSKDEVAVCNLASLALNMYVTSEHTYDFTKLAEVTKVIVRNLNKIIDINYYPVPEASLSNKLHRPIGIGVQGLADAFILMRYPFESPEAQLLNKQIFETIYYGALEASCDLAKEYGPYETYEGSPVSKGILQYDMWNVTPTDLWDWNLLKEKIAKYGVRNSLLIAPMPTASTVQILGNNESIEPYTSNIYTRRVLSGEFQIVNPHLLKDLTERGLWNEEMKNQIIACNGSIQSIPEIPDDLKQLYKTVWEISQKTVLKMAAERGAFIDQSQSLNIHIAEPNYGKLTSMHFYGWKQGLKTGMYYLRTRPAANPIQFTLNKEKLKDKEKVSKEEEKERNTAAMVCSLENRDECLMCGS
# Assay procedure: biochemical
# Measurement setup: Table 4; 100 × (IC50 Ac(FTLDADF)/IC50 peptide analog); mammalian RR
# Excerpt: From two to four assays were run
Ends that are not written are not given here.
Reported metric: Percent RI (percent relative inhibitory potency) (%)
All answers are understood in %, so give the number only.

Ac-FTADADF [Peptide 15, Ac- (FTADADF)]	4.9
Ac-SFTLDADF [Peptide 2]	100
Ac-FTLDGDF [Peptide 18, Ac- (FTLDGDF)]	9
Ac-FALDADF [Peptide 12, Ac- (FALDADF)]	24
Ac-FTLAADF [Peptide 17, Ac- (FTLAADF)]	2.9

Query: Record request: Percent RI (percent relative inhibitory potency) value, item Ac-FTLDLDF [Peptide 19, Ac- (FTLDLDF)]
Reply: 35

Query: Likewise for Ac-FTLDANF [Peptide 21, Ac- (FTLDANF)] ?
Reply: 23

Query: Would you kindly repeat that for Ac-FTLDALF [Peptide 22, Ac- (FTLDALF)] ?
Reply: 35

Query: Same lookup for Ac- (FTFTADF) [Peptide 14] , please.
Reply: 18

Query: Another: Ac-FTLDAEF [Peptide 20, Ac- (FTLDAEF)]
Reply: 1.7

Query: How about this substance: Ac-FLDADF [Peptide 25, Ac- (FLDADF)]
Reply: 2.5

Query: Same lookup for Ac-FTLDAAF [Peptide 23, Ac- (FTLDAAF)] , please.
Reply: 28
